This collection of values is drawn from patent US12281155.

target: T1, recombinant SARS-CoV-2 Spike RBD domain, BA.2.86 variant (SARS-CoV-2); test: ELISA on coated RBD
T1 construct: also called RBD BA.2.86 variant
# key: entry, value: Binding AUC

binder	Binding AUC
SPK002M A4 antibody (antibody, human IgG1, kappa, V domains shown) VH: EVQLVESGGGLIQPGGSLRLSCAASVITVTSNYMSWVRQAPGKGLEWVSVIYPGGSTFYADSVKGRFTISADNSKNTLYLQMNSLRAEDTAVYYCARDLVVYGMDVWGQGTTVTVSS VL: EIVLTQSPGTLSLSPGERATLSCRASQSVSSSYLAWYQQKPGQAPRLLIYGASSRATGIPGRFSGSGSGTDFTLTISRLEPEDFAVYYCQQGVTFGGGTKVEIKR	38
SPK002M B2 antibody (antibody, human IgG1, kappa, V domains shown) VH: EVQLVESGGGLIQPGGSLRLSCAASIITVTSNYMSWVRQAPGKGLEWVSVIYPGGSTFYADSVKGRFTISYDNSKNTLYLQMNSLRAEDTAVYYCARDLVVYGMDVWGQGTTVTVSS VL: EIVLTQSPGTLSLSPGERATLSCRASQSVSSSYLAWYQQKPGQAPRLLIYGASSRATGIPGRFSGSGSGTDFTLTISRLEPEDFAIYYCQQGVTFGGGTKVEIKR	39
SPK002M A3 antibody (antibody, human IgG1, kappa, V domains shown) VH: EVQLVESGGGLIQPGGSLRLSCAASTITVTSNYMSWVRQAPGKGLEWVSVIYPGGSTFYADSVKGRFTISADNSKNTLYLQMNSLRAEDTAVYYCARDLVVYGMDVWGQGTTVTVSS VL: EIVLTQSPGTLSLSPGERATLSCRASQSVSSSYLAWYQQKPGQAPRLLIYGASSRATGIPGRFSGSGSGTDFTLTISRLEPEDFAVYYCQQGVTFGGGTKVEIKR	38
SPK002M A1 antibody (antibody, human IgG1, kappa, V domains shown) VH: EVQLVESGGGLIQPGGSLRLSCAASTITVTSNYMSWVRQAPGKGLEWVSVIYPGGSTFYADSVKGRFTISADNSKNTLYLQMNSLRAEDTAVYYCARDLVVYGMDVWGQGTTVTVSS VL: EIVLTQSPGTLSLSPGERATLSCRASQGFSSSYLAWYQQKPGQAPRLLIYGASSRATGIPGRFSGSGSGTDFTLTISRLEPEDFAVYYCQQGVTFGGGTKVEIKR	37
SPK002M C3 antibody (antibody, human IgG1, kappa, V domains shown) VH: EVQLVESGGGLIQPGGSLRLSCAASIITVTSNYMSWVRQAPGKGLEWVSVIYPGGSTFYADSVKGRFTISTDNSKNTLYLQMNSLRAEDTAVYYCARDLVVYGMDVWGQGTTVTVSS VL: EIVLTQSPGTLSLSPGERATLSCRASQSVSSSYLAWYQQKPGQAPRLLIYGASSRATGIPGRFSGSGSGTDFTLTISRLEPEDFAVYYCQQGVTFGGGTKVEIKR	38
